Every entry's value here was drawn from ChEMBL document CHEMBL4706528.

Assign IC50 to each entry below.
System: LNCaP
test name: Antiproliferative activity against androgen-positive human LNCaP cells assessed as cell growth inhibition measured after 72 hrs by SRB assay
Format: functional, cell-based

Name the recorded IC50 for CC1(C)C(=O)N(c2ccc(C#N)c(C(F)(F)F)c2)C(=S)N1Cc1ccc(OCCOCCOC(=O)CC23CC4CC(CC(C4)C2)C3)cc1 .
> 80 µM

Moving on to CC1(C)C(=O)N(c2ccc(C#N)c(C(F)(F)F)c2)C(=O)N1CCCn1cc(COCCOCCOCCOC(=O)CC23CC4CC(CC(C4)C2)C3)nn1
6.66 µM

Moving on to CC1(C)C(=O)N(c2ccc(C#N)c(C(F)(F)F)c2)C(=S)N1Cc1ccc(OCCOCCOCCOCCOC(=O)CC23CC4CC(CC(C4)C2)C3)cc1
> 80 µM

###

Tested on: LNCaP
test name: Antiproliferative activity against androgen-positive human LNCaP cells assessed as cell growth inhibition measured after 72 hrs by SRB assay
Assay type: functional, cell-based
Assign pIC50 to each entry below.
Note on units: pIC50 is unitless, being -log10 of a concentration expressed in mol/L.

Name the recorded pIC50 for CC1(C)C(=O)N(c2ccc(C#N)c(C(F)(F)F)c2)C(=O)N1CCCn1cc(COCCOCCOCCOCCOC(=O)CC23CC4CC(CC(C4)C2)C3)nn1 .
5.00

Moving on to CC1(C)C(=O)N(c2ccc(C#N)c(C(F)(F)F)c2)C(=O)N1Cc1cn(CCOCCOCCOC(=O)CC23CC4CC(CC(C4)C2)C3)nn1
5.11

Moving on to CC1(C)C(=O)N(c2ccc(C#N)c(C(F)(F)F)c2)C(=S)N1CCCn1cc(COCCOCCOCCOC(=O)CC23CC4CC(CC(C4)C2)C3)nn1
5.40

Moving on to CC1(C)C(=O)N(c2ccc(C#N)c(C(F)(F)F)c2)C(=S)N1CCCCCCn1cc(COCCOCCOC(=O)CC23CC4CC(CC(C4)C2)C3)nn1
4.47

Moving on to CC1(C)C(=O)N(c2ccc(C#N)c(C(F)(F)F)c2)C(=O)N1Cc1cn(CCOCCOCCOCCOC(=O)CC23CC4CC(CC(C4)C2)C3)nn1
5.16

Moving on to CC1(C)C(=O)N(c2ccc(C#N)c(C(F)(F)F)c2)C(=S)N1CCCCn1cc(COCCOCCOC(=O)CC23CC4CC(CC(C4)C2)C3)nn1
5.73

Moving on to CC1(C)C(=O)N(c2ccc(C#N)c(C(F)(F)F)c2)C(=S)N1Cc1cn(CCOCCOCCOCCOC(=O)CC23CC4CC(CC(C4)C2)C3)nn1
5.20

Moving on to CC1(C)C(=O)N(c2ccc(C#N)c(C(F)(F)F)c2)C(=S)N1CCCn1cc(COCCOCCOCCOCCOCCOC(=O)CC23CC4CC(CC(C4)C2)C3)nn1
5.16

Moving on to CC1(C)C(=O)N(c2ccc(C#N)c(C(F)(F)F)c2)C(=O)N1CCCn1cc(COCCCOC(=O)CC23CC4CC(CC(C4)C2)C3)nn1
5.39

Moving on to CC1(C)C(=O)N(c2ccc(C#N)c(C(F)(F)F)c2)C(=S)N1CCCCCn1cc(COCCOCCOC(=O)CC23CC4CC(CC(C4)C2)C3)nn1
5.76

Moving on to CC1(C)C(=O)N(c2ccc(C#N)c(C(F)(F)F)c2)C(=S)N1Cc1cn(CCOCCOCCOC(=O)CC23CC4CC(CC(C4)C2)C3)nn1
5.04
